Measured values drawn from patent US8552022B2 for this set.

Consider the following compounds; for each one, report its pEC50.
Molecular target: GPR119 (UniProt Q8TDV5, S309L, species not given)
Experiment: GPR119 signaling, cyclic AMP (cAMP) HTRF assay
Settings: CHO cells with Gα15 and murine GPR119 or HEK293 Flp-In cells with human GPR119 S309L, read-out: EC50 (agonist activation of GPR119, cAMP)
Excerpt: The title compound was synthesized using 2-{2-[1-(5-chloropyrimidin-2-yl)piperidin-4-yl]cyclopropyl}ethyl 4-methylbenzenesulfonate from step 1 of this example by a general procedure analogous that described in Example 59. LRMS calc: 424.9; obs: 425.01 (M+1). Measurement of GPR119Signaling Using a Cyclic AMP (cAMP) Homogenous Time Resolved Fluorescence (HTRF) Assay […]
pEC50: −log10 of the molar value.

Reported pEC50, compound CS(=O)(=O)c1ccc(NCC[C@@H]2C[C@@H]2C2CCN(c3ncc(Cl)cn3)CC2)nc1 : ____
7.30 to 8.00

Now try Cc1cc(NC(=O)C(C)(C)C)cnc1NCC[C@@H]1C[C@@H]1C1CCN(c2ncc(Cl)cn2)CC1 .
> 8.00

Now try Cc1n[nH]c2ccc(NCC[C@@H]3C[C@@H]3C3CCN(c4ncc(Cl)cn4)CC3)cc12 .
> 8.00

Now try O=C1COC(=O)N1c1ccc(NCC[C@@H]2C[C@@H]2C2CCN(c3ncc(Cl)cn3)CC2)cn1 .
7.30 to 8.00

Now try Cn1ncc2cc(NCC[C@@H]3C[C@@H]3C3CCN(c4ncc(Cl)cn4)CC3)ccc21 .
7.30 to 8.00

Now try CC(C)(C)C(=O)Nc1ccc(NCC[C@@H]2C[C@@H]2C2CCN(c3ncc(Cl)cn3)CC2)nc1 .
> 8.00
